Entries and their measured pIC50 follow.
biological target: GABA-A receptor; anion channel; assay: Inhibition of [35S]TBPS binding to Gamma-aminobutyric acid A receptor of rat brain membranes; format: cell membranes, Membrane
pIC50: −log10 of the molar value.
Quantity name: pIC50

> print(dat)
                                given.smiles  observed.value
 1          CC(C)c1cc(CN2CCSCC2)cc(C(C)C)c1N          < 4.00
 2          CC(C)c1cc(CN2CCSCC2)cc(C(C)C)c1O            4.56
 3          CC(C)c1cc(CN2CCOCC2)cc(C(C)C)c1O          < 4.00
 4     CC(C)c1cc(CN(C)Cc2ccccc2)cc(C(C)C)c1O          < 5.00
 5          CC(C)c1cc(CN2CCOCC2)cc(C(C)C)c1N          < 4.00
 6           CC(C)c1cc(CN2CCOCC2)cc(C(C)C)c1          < 4.52
 7         CNc1c(C(C)C)cc(CN2CCOCC2)cc1C(C)C          < 4.00
 8    CC(=O)Nc1c(C(C)C)cc(CN2CCOCC2)cc1C(C)C          < 5.00
 9      CC(C)c1cc(CN2CCOCC2)cc(C(C)C)c1N(C)C          < 4.52
10  CC(=O)N1CCN(Cc2cc(C(C)C)c(O)c(C(C)C)c2)CC1          < 4.00
11  CCOC(=O)C1CCN(Cc2cc(C(C)C)c(O)c(C(C)C)c2)CC1            4.51
12         CC(C)c1cc(CCN2CCOCC2)cc(C(C)C)c1O          < 4.00
13     CC(C)c1cc(C(=O)CN2CCSCC2)cc(C(C)C)c1O          < 5.00
